These entries and their values trace back to patent US5591715A.

assay.protocol: in vitro
experimental.conditions: human, k562/iii cells
reported.metric: CC50 at 72 h (µg/mL)
Answers are plain numbers, in µg/mL.

**Q:** Any idea what CC50 at 72 h was measured for COc1ccc(CCN(C)CCCC(C#N)(c2ccc(OC)c(OC)c2)C(C)C)cc1OC (stereo not shown) ?
**A:** 38

* * *

assay.protocol: in vitro
experimental.conditions: human, kb 8-5-11 cells
reported.metric: CC50 at 72 h (mg/L)
Numbers only, in mg/L.

**Q:** Dear colleague, I am looking for the recorded CC50 at 72 h of the following compound: COc1ccc(CCN(C)CCCC(C#N)(c2ccc(OC)c(OC)c2)C(C)C)cc1OC (stereo not shown)
**A:** 27

* * *

assay.protocol: in vitro
experimental.conditions: human, kb 8-5 cells
reported.metric: CC50 at 72 h (µg/mL)
Numbers only, in µg/mL.

**Q:** Tell me the measured CC50 at 72 h of COc1ccc(CCN(C)CCCC(C#N)(c2ccc(OC)c(OC)c2)C(C)C)cc1OC (stereo not shown) [Verapamil] , please.
**A:** 10
